- Target: HIV-1 integrase (HIV-1)
- Protocol Details: steady-state fluorescence anisotropy, fluorescein-labelled peptide titrated with IN
Where no end group is shown, it is not given here.
Recorded Endpoint: pKd
One number for each entry, as −log10 of the molar value.

Qu. Could you share which pKd value was measured for GTKWLTEWIPLTAEAEC (not fully specified) [PAW-FITC] ?
Ans. 6.40
